These entries and their values trace back to patent US20250214991A1.

- TESTED SYSTEM: IKZF2 (Homo sapiens (Human), UniProt Q96SW2+Q9UKS7)
- Sequence (Q9UKS7 whole entry): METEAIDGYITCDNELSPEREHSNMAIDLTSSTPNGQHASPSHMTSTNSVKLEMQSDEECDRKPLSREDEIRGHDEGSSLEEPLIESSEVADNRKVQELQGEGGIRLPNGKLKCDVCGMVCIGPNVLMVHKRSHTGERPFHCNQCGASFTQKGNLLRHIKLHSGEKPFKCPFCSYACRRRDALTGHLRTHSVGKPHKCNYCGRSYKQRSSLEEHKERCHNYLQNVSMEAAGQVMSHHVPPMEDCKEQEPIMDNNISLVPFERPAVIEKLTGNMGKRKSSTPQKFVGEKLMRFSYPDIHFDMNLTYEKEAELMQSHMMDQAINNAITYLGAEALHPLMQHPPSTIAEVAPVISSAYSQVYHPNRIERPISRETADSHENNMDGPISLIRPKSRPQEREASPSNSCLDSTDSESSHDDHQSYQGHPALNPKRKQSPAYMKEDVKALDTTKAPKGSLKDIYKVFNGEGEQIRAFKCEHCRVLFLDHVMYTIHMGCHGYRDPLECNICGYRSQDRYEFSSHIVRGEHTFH
- Sequence (Q96SW2 whole entry): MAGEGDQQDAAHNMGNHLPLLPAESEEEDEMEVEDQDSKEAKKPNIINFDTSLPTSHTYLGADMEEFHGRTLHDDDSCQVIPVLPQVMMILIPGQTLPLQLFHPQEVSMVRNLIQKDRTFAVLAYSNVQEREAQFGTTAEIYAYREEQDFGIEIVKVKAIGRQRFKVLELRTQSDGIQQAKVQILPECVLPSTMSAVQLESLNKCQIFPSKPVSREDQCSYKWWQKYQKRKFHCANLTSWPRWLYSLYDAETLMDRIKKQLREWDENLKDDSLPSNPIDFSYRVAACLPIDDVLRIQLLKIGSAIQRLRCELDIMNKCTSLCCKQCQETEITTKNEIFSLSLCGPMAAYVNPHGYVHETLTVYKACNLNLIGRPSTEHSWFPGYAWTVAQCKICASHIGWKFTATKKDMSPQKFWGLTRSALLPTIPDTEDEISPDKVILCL
- Sequence (Q16531 2-1140 partner): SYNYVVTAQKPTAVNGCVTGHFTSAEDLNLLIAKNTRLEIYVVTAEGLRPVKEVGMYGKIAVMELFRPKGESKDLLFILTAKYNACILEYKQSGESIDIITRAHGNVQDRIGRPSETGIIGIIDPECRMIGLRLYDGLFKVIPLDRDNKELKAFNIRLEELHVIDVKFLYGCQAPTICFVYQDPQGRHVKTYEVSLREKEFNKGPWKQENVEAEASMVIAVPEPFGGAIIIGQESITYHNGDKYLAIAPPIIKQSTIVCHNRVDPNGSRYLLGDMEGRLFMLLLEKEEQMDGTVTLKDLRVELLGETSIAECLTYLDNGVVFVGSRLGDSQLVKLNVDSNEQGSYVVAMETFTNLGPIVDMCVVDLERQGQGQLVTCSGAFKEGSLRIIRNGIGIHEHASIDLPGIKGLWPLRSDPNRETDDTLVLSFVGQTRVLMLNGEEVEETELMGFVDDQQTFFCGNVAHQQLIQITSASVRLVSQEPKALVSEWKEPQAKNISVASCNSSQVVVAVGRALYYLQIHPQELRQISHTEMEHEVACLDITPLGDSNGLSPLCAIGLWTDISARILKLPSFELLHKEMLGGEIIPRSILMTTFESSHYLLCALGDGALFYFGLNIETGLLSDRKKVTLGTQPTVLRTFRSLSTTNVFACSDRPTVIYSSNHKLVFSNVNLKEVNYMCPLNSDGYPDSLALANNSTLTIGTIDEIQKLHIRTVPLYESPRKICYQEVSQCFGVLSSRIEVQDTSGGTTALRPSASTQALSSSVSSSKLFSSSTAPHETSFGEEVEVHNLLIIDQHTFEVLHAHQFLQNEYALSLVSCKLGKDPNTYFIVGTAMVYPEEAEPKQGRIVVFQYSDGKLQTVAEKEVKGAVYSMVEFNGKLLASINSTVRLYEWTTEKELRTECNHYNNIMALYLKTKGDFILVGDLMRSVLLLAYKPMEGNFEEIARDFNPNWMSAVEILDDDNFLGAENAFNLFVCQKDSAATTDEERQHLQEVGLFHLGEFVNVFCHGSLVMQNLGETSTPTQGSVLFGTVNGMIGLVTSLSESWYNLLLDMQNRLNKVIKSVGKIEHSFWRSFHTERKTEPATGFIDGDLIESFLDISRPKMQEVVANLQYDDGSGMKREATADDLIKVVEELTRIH
- EXPERIMENT SUMMARY: In vitro IKZF2 HiBit Assay (HEK293T Flp-in-HiBiT cells)
- Assay type: cell-based
- STUDY CONDITIONS: HEK-293T; HEK293T Flp-in-HiBiT cells, 6 hrs incubation; read-out: IKZF2 HiBit Dmax (%)
EXPERIMENTAL READOUT: Dmax

{"COMPOUND": "Cn1ccc2nc(-c3ccc4c(c3)CN(C3CCC(=O)NC3=O)C4=O)cc(CN3CCCC3)c21 (stereo not shown)", "EXPERIMENTAL READOUT": "Dmax", "DATA VALUE": "> 80%"}
{"COMPOUND": "CCc1c(-c2ccc3c(c2)CN(C2CCC(=O)NC2=O)C3=O)nc2c(ccn2C2COC2)c1CN1CCCC1 (stereo not shown)", "EXPERIMENTAL READOUT": "Dmax", "DATA VALUE": "60 to 80%"}
{"COMPOUND": "COc1n[nH]c2c(CN3CCCC3)cc(-c3ccc4c(c3)CN(C3CCC(=O)NC3=O)C4=O)nc12 (stereo not shown)", "EXPERIMENTAL READOUT": "Dmax", "DATA VALUE": "60 to 80%"}
{"COMPOUND": "O=C1CCC(N2Cc3cc(-c4cc(CN5CC(O)C5)c5ccn(C6COC6)c5n4)ccc3C2=O)C(=O)N1 (stereo not shown)", "EXPERIMENTAL READOUT": "Dmax", "DATA VALUE": "40 to 60%"}
{"COMPOUND": "O=C1CCC(N2Cc3cc(-c4cc(CN5CC(O)C5)c5ccn(C6CC6)c5n4)ccc3C2=O)C(=O)N1 (stereo not shown)", "EXPERIMENTAL READOUT": "Dmax", "DATA VALUE": "> 80%"}
{"COMPOUND": "O=C1CCC(N2Cc3c(ccc(-c4cc(CN5CCCC5)c5ccn(C6COC6)c5n4)c3F)C2=O)C(=O)N1 (stereo not shown)", "EXPERIMENTAL READOUT": "Dmax", "DATA VALUE": "60 to 80%"}
{"COMPOUND": "Cn1ccc2c(CN3CCC(F)C3)cc(-c3ccc4c(c3)CN(C3CCC(=O)NC3=O)C4=O)nc21 (stereo not shown)", "EXPERIMENTAL READOUT": "Dmax", "DATA VALUE": "> 80%"}

====

Reported IC50 by item:
- TESTED SYSTEM: CRBN/DDB1 (Homo sapiens (Human), UniProt Q96SW2)
- Sequence (Q96SW2 whole entry, species assumed): as the sequence (Q96SW2 whole entry) above
- Sequence (Q16531 whole entry partner, species assumed): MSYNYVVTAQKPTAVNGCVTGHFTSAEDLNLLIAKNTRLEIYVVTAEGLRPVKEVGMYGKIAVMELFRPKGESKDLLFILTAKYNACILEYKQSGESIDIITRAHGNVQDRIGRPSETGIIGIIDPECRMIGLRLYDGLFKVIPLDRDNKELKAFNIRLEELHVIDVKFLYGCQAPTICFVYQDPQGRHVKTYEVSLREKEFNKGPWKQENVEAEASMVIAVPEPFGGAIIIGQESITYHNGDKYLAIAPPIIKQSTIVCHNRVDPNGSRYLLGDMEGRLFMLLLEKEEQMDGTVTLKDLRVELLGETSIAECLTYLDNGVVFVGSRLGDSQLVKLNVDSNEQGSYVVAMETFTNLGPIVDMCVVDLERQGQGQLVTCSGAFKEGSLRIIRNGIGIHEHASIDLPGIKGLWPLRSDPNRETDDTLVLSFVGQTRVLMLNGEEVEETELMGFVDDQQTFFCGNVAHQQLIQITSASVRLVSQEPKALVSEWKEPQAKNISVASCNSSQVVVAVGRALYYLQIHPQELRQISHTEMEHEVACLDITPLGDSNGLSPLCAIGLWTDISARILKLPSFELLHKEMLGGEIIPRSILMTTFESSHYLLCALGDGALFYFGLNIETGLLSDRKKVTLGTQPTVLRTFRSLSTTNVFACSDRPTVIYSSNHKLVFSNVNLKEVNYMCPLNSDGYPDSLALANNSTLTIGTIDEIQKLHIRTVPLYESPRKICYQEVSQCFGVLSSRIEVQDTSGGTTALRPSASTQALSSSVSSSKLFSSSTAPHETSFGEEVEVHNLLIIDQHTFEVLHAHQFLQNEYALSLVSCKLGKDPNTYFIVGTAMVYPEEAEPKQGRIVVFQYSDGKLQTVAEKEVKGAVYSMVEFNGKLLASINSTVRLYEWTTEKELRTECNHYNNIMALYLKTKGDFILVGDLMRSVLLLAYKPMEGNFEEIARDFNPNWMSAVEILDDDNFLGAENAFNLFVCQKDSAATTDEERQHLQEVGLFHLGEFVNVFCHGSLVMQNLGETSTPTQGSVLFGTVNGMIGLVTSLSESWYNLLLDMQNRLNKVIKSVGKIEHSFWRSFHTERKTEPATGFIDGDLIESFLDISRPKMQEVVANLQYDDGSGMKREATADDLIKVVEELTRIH
- EXPERIMENT SUMMARY: IC50 measurements for binding to CRBN/DDB1 (HTRF)
- STUDY CONDITIONS: His tagged CRBN+DDB, Cy5-labeled Thalidomide probe, one hour

{"MOLECULE": "Cn1ccc2c(CN3CCC(F)CC3)cc(-c3ccc4c(c3)CN(C3CCC(=O)NC3=O)C4=O)nc21 (stereo not shown)", "TESTED SYSTEM": "CRBN/DDB1 (Homo sapiens (Human), UniProt Q96SW2)", "IC50": "1 to 5 µM"}
{"MOLECULE": "Cc1cc(-c2ccc3c(c2)CN(C2CCC(=O)NC2=O)C3=O)nc2nc(CN3CCCC3)oc12 (stereo not shown)", "TESTED SYSTEM": "CRBN/DDB1 (Homo sapiens (Human), UniProt Q96SW2)", "IC50": "1 to 5 µM"}
{"MOLECULE": "O=C1CCC(N2Cc3cc(-c4cc(CN5CCCC5)c5ccn(C6CS(=O)(=O)C6)c5n4)ccc3C2=O)C(=O)N1 (stereo not shown)", "TESTED SYSTEM": "CRBN/DDB1 (Homo sapiens (Human), UniProt Q96SW2)", "IC50": "0.5 to 1 µM"}
{"MOLECULE": "O=C1CCC(N2Cc3cc(-c4cc(CN5CC(F)C5)c5cc[nH]c5n4)ccc3C2=O)C(=O)N1 (stereo not shown)", "TESTED SYSTEM": "CRBN/DDB1 (Homo sapiens (Human), UniProt Q96SW2)", "IC50": "0.1 to 0.5 µM"}

====

- TESTED SYSTEM: IKZF2 (Homo sapiens (Human), UniProt Q96SW2+Q9UKS7)
- EXPERIMENT SUMMARY: In vitro IKZF2 FACS Assay in Jurkat cells
- Format: cell-based
- STUDY CONDITIONS: 24 hrs, half maximal degradation concentration
Structures can show the parent of a compound that is named as a salt.
EXPERIMENTAL READOUT: DC50

{"MOLECULE": "O=C1CCC(N2Cc3cc(-c4cc(CN5CCC(CO)C5)c5ccn(C6COC6)c5n4)ccc3C2=O)C(=O)N1 (stereo not shown)", "EXPERIMENTAL READOUT": "DC50", "DATA VALUE": "10 to 100 nM"}
{"MOLECULE": "CC(C)Nc1ccnc2c(CN3CCCC3)cc(-c3ccc4c(c3)CN(C3CCC(=O)NC3=O)C4=O)nc12 (stereo not shown)", "EXPERIMENTAL READOUT": "DC50", "DATA VALUE": "> 1000 nM"}
{"MOLECULE": "CC1c2cc(-c3cc(CN4CCCC4)c4ccn(C5CS(=O)(=O)C5)c4n3)ccc2C(=O)N1C1CCC(=O)NC1=O (stereo not shown)", "EXPERIMENTAL READOUT": "DC50", "DATA VALUE": "1 to 10 nM"}
{"MOLECULE": "COC1CCN(Cc2cc(-c3ccc4c(c3F)CN(C3CCC(=O)NC3=O)C4=O)nc3c2ccn3C2CS(=O)(=O)C2)CC1 (stereo not shown) [Example 266, formate]", "EXPERIMENTAL READOUT": "DC50", "DATA VALUE": "1 to 10 nM"}
{"MOLECULE": "Nc1nn(C2CC2)c2c(CN3CCCC3)cc(-c3ccc4c(c3)CN(C3CCC(=O)NC3=O)C4=O)nc12 (stereo not shown)", "EXPERIMENTAL READOUT": "DC50", "DATA VALUE": "1 to 10 nM"}
{"MOLECULE": "O=C1CCC(N2Cc3cc(-c4cc(CNCc5cccc6ccccc56)cc5cncn45)ccc3C2=O)C(=O)N1 (stereo not shown)", "EXPERIMENTAL READOUT": "DC50", "DATA VALUE": "10 to 100 nM"}
{"MOLECULE": "O=C1CCC(N2Cc3cc(-c4cc(CN5CC6COCC(C6)C5)c5cc[nH]c5n4)ccc3C2=O)C(=O)N1 (stereo not shown)", "EXPERIMENTAL READOUT": "DC50", "DATA VALUE": "10 to 100 nM"}

====

- TESTED SYSTEM: CRBN/DDB1 (Homo sapiens (Human), UniProt Q96SW2)
- EXPERIMENT SUMMARY: IC50 measurements for binding to CRBN/DDB1 (HTRF)
- STUDY CONDITIONS: His tagged CRBN+DDB, Cy5-labeled Thalidomide probe, one hour
EXPERIMENTAL READOUT: IC50

{"MOLECULE": "O=C1CCC(N2Cc3cc(-c4cc(CN5CCCC5)c5ncn(C6COC6)c5n4)ccc3C2=O)C(=O)N1 (stereo not drawn) [Example 211]", "EXPERIMENTAL READOUT": "IC50", "DATA VALUE": "0.5 to 1 µM"}
{"MOLECULE": "CC(C)n1ccc2nc(-c3ccc4c(c3)CN(C3CCC(=O)NC3=O)C4=O)cc(CN3CCCC3)c21 (stereo not drawn) [Example 172]", "EXPERIMENTAL READOUT": "IC50", "DATA VALUE": "1 to 5 µM"}
{"MOLECULE": "CC1CCN(Cc2cc(-c3ccc4c(c3)CN(C3CCC(=O)NC3=O)C4=O)nc3c2ccn3C)CC1 (stereo not drawn) [Example 81]", "EXPERIMENTAL READOUT": "IC50", "DATA VALUE": "5 to 10 µM"}
{"MOLECULE": "Nc1n[nH]c2c(CN3CC(O)C3)cc(-c3ccc4c(c3)CN(C3CCC(=O)NC3=O)C4=O)nc12 (stereo not drawn) [Example 213]", "EXPERIMENTAL READOUT": "IC50", "DATA VALUE": "0.1 to 0.5 µM"}
{"MOLECULE": "O=C1CCC(N2Cc3cc(-c4cc(CN5CC6COCC(C6)C5)cc5cncn45)ccc3C2=O)C(=O)N1 (stereo not drawn) [Example 11]", "EXPERIMENTAL READOUT": "IC50", "DATA VALUE": "0.5 to 1 µM"}
{"MOLECULE": "Cn1cc2nc(-c3ccc4c(c3)CN(C3CCC(=O)NC3=O)C4=O)cc(CN3CCCC3)c2n1 (stereo not drawn) [Example 314]", "EXPERIMENTAL READOUT": "IC50", "DATA VALUE": "0.1 to 0.5 µM"}
{"MOLECULE": "Nc1n[nH]c2c(CN3CCC(O)CC3)cc(-c3ccc4c(c3)CN(C3CCC(=O)NC3=O)C4=O)nc12 (stereo not drawn) [Example 205]", "EXPERIMENTAL READOUT": "IC50", "DATA VALUE": "0.5 to 1 µM"}
{"MOLECULE": "Cn1ccc2c(CN3CCCCCC3)cc(-c3ccc4c(c3)CN(C3CCC(=O)NC3=O)C4=O)nc21 (stereo not drawn) [Example 302]", "EXPERIMENTAL READOUT": "IC50", "DATA VALUE": "1 to 5 µM"}
{"MOLECULE": "CC#CCn1ccc2c(CN3CCCC3)cc(-c3ccc4c(c3)CN(C3CCC(=O)NC3=O)C4=O)nc21 (stereo not drawn) [Example 148]", "EXPERIMENTAL READOUT": "IC50", "DATA VALUE": "0.1 to 0.5 µM"}
{"MOLECULE": "Cn1ccc2c(CN3CCCC3)nc(-c3ccc4c(c3)CN(C3CCC(=O)NC3=O)C4=O)nc21 (stereo not drawn) [Example 184]", "EXPERIMENTAL READOUT": "IC50", "DATA VALUE": "0.5 to 1 µM"}
{"MOLECULE": "O=C1CCC(N2Cc3cc(-c4cc(CN5CCC6(CCC6)CC5)cc5cncn45)ccc3C2=O)C(=O)N1 (stereo not drawn) [Example 9]", "EXPERIMENTAL READOUT": "IC50", "DATA VALUE": "0.5 to 1 µM"}
{"MOLECULE": "CC(C)(NCc1cc(-c2ccc3c(c2)CN(C2CCC(=O)NC2=O)C3=O)n2cncc2c1)c1ccccc1 (stereo not drawn) [Example 18]", "EXPERIMENTAL READOUT": "IC50", "DATA VALUE": "0.5 to 1 µM"}
{"MOLECULE": "COC1CCN(Cc2cc(-c3ccc4c(c3)CN(C3CCC(=O)NC3=O)C4=O)nc3c2ccn3C)C1 (stereo not drawn) [Example 93]", "EXPERIMENTAL READOUT": "IC50", "DATA VALUE": "0.1 to 0.5 µM"}
{"MOLECULE": "Cn1ccc2c(CN3CCCC3(C)C)cc(-c3ccc4c(c3)CN(C3CCC(=O)NC3=O)C4=O)nc21 (stereo not drawn) [Example 113]", "EXPERIMENTAL READOUT": "IC50", "DATA VALUE": "1 to 5 µM"}
{"MOLECULE": "Cn1ccc2c(CN3CC4COCC(C4)C3)cc(-c3ccc4c(c3)CN(C3CCC(=O)NC3=O)C4=O)nc21 (stereo not drawn) [Example 70]", "EXPERIMENTAL READOUT": "IC50", "DATA VALUE": "1 to 5 µM"}
